Here the recorded gcPBM binding intensity (ln) is given for each entry.
# System: PfAP2-EXP AP2 domain (GST-tagged)
# test name: gcPBM binding intensity (ln(normalized median fluorescence intensity)); higher = stronger DNA binding
Whole data set: some 25,000 sequences, median “ln(normalized median fluorescence intensity)” near 8.6, cut for the highest 2% near 10. For the sample, the highest values were picked, then their nearest neighbours and some sequences at random.

sequence entry: ATTTATATTCCAATATGTACATATTTTCGTATAACC [XGTACX_site8507]
gcPBM binding intensity (ln): 8.88
--
sequence entry: GAAATTATGTAAAAAAGTACTAACATACATATATAT [XGTACX_site1794]
gcPBM binding intensity (ln): 8.61
--
sequence entry: ATATATAATCATCACACATGCAGCCCTGATGAAAAA [TGCATGCA_site687]
gcPBM binding intensity (ln): 8.77
--
sequence entry: TATGTAATGTTTACAACACACAAATTATAAATACAA [CACACA_site1771]
gcPBM binding intensity (ln): 8.38
--
sequence entry: CTCAACATATACGTAACACACATATATATATATATA [CACACA_site3838]
gcPBM binding intensity (ln): 10.2
--
sequence entry: AAAAGTCTTCAAATTTGTACATATATATATATATAT [XGTACX_site3404]
gcPBM binding intensity (ln): 10.3
--
sequence entry: AAATGTACAGGACGCACACACATATTTATATTTATA [CACACA_site7689]
gcPBM binding intensity (ln): 8.55
--
sequence entry: ATCAGATATATATATTGTACATTTATATATAAATCA [XGTACX_site1960]
gcPBM binding intensity (ln): 8.46
--
sequence entry: AAATGTACAGGACGCACACACATATATATATATATA [CACACA_site3674]
gcPBM binding intensity (ln): 10.4
--
sequence entry: ACGTATCAAAAAATTTGTACATATATATATATATAT [XGTACX_site1024]
gcPBM binding intensity (ln): 10.1

query: Quick check: gcPBM binding intensity (ln) of TATAATAATAATTATTGTACGATTAGGTTAATTCAT [XGTACX_site1984] ?
result: 8.37

query: Another: CATAATATATATTGAGCATGCTACTATTGTTAGAAA [TGCATGCA_site740]
result: 9

query: Another: AGAAACCTTGTTAGTTAGCATATATATATATATATA [CACACA_negctrl_site372]
result: 10.2

query: Another: TCTTAATATGGTAATACACACTAATATACTTTTGTT [CACACA_site4969]
result: 8.55

query: Another: ATTAATTTTAATAAAGGTACACGTAGTTTTTTATTA [XGTACX_site7868]
result: 8.16

query: Another: ACATTCACAAAATTTTGTACACATATATATATATAT [XGTACX_site3518]
result: 10

query: Another: ATTTAAAAAATATATTGTACATATTTTATTATGTTT [XGTACX_site2984]
result: 8.29

query: Another: AAAAAAAAAAAAAAATGTACATATAAATAAATATAT [XGTACX_site7248]
result: 8.51

query: Another: TATCGACATTTCATTTGTACATATATACATATATTT [XGTACX_site3346]
result: 8.64

query: Another: TGAATACTTATGTTCGCACACATGCAAATTAAAAAA [CACACA_site4048]
result: 8.62

query: Another: ACATACATATATATACGTACATATATATTTATATAT [XGTACX_site5799]
result: 8.75

query: Another: TATATATATATATTCACACATAAATATATGCACCCA [CACACA_site4263]
result: 9.96
